target or system: UniProt Q13126
Sequence (Q13126 whole entry): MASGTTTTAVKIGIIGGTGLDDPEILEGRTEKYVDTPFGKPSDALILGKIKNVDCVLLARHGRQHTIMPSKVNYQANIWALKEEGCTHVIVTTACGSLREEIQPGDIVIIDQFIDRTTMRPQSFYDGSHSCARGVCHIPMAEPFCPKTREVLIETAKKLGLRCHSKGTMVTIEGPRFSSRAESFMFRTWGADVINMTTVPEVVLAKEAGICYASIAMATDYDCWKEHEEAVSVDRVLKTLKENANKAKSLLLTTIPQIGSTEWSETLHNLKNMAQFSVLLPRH
method: Prodrug activation assessed as recombinant human MTAP-mediated compound cleavage at 100 uM by reverse phase HPLC analysis
Let's look at some compounds and their measured Drug metabolism.
# unit: nmol/mg/h | format: bare number

compound structure	measured property	unit symbol	meas value
Cc1ncnc2c1ncn2[C@@H]1O[C@H]([C@H](C)O)[C@@H](O)[C@H]1O	Drug metabolism	nmol/mg/h	4

Consider the record given below.
Identify Drug metabolism associated with the compound "Nc1ncnc2c1ncn2[C@@H]1O[C@H](CO)[C@@H](O)[C@H]1O"
596

---

method: Terminal half life of compound in mouse at 100 mg/kg, ip by reverse phase HPLC analysis
Assay type: ADME, organism-based
assay context: in vivo, read-out: beta t1/2
measured property: half-life (min)
# unit: min | format: bare number

Identify half-life associated with the compound "Cc1ncnc2c1ncn2[C@@H]1O[C@H]([C@H](C)O)[C@@H](O)[C@H]1O"
21

---

Let's look at some compounds and their measured Drug metabolism.
target or system: 5'-methylthioadenosine/S-adenosylhomocysteine nucleosidase (Escherichia coli O157:H7, UniProt P0AF14)
Sequence (P0AF14 whole entry): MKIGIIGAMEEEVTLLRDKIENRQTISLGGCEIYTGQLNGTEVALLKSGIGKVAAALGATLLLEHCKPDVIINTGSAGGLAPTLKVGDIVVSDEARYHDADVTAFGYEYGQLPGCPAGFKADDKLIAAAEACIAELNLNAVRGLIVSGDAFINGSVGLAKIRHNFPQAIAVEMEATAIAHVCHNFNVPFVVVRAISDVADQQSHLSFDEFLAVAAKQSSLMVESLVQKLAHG
method: Prodrug activation assessed as recombinant Escherichia coli SAH/MTA hydrolase-mediated compound cleavage at 100 uM by reverse phase HPLC analysis
# unit: nmol/mg/h | format: bare number

compound	meas value
Cc1ncnc2c1ncn2[C@H]1C[C@H](O)[C@@H](CO)O1	30
Cc1ncnc2c1ncn2[C@@H]1O[C@H](CO)[C@@H](O)[C@H]1O	290
Nc1ncnc2c1ncn2[C@@H]1O[C@H](CO)[C@@H](O)[C@H]1O [ADENOSINE]	2100

Identify Drug metabolism associated with the compound "Cc1ncnc2c1ncn2[C@@H]1O[C@H]([C@H](C)O)[C@@H](O)[C@H]1O"
51

Identify Drug metabolism associated with the compound "Cc1ncnc2c1ncn2[C@@H]1O[C@@H](CO)[C@@H](O)[C@H]1O"
36

---

method: Terminal half life of compound in mouse plasma at 67 mg/kg, ip by reverse phase HPLC analysis
Type: ADME, organism-based
assay context: read-out: beta t1/2
measured property: half-life (min)
# unit: min | format: bare number

Identify half-life associated with the compound "Cc1ncnc2c1ncn2[C@H]1C[C@H](O)[C@@H](CO)O1"
14

---

Let's look at some compounds and their measured log10 of Drug metabolism.
target or system: Purine nucleoside phosphorylase (Sulfolobus solfataricus (strain ATCC 35092 / DSM 1617 / JCM 11322 /P2), UniProt P50389)
Sequence (P50389 whole entry): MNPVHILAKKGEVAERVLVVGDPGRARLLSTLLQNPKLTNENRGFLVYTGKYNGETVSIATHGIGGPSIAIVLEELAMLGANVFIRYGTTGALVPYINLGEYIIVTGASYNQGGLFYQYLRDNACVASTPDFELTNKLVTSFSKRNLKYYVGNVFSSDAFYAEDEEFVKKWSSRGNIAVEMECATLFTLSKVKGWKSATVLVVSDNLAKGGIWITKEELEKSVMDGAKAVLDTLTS
method: Prodrug activation assessed as recombinant Sulfolobus solfataricus MTAP-mediated compound cleavage at 100 uM by reverse phase HPLC analysis
assay context: saccharolobus solfataricus
Please note: log10 values; quantity Drug metabolism; unit nmol/mg/h.

Some compounds with known log10 of Drug metabolism results, for comparison:
compound	log10 of Drug metabolism
Cc1ncnc2c1ncn2[C@@H]1O[C@H]([C@H](C)O)[C@@H](O)[C@H]1O	3.18
OC[C@H]1O[C@@H](n2cnc3c(O)ncnc32)[C@H](O)[C@@H]1O [INOSINE]	4.92
Cc1ncnc2c1ncn2[C@@H]1O[C@@H](CO)[C@@H](O)[C@H]1O	3.15

Identify log10 of Drug metabolism associated with the compound "Cc1ncnc2c1ncn2[C@@H]1O[C@H](CO)[C@@H](O)[C@H]1O"
3.60

Identify log10 of Drug metabolism associated with the compound Nc1ncnc2c1ncn2[C@@H]1O[C@H](CO)[C@@H](O)[C@H]1O [ADENOSINE]
4.76

Identify log10 of Drug metabolism associated with the compound "Cc1ncnc2c1ncn2[C@H]1C[C@H](O)[C@@H](CO)O1"
4.08

---

method: Prodrug activation assessed as Francisella tularensis PNP-mediated compound cleavage at 100 uM by reverse phase HPLC analysis
Lab note: anything with Drug metabolism at or over 2000 nmol/mg/h counts as MET; the rest go in NOT MET.

Past entries and their recorded results:
compound structure	cat
Cc1ncnc2c1ncn2[C@@H]1O[C@H]([C@H](C)O)[C@@H](O)[C@H]1O	NOT MET
Nc1ncnc2c1ncn2[C@@H]1O[C@H](CO)[C@@H](O)[C@H]1O	MET
Cc1ncnc2c1ncn2[C@@H]1O[C@H](CO)[C@@H](O)[C@H]1O	MET

Quick check: does "Cc1ncnc2c1ncn2[C@H]1C[C@H](O)[C@@H](CO)O1" have Drug metabolism greater than or equal to 2000 nmol/mg/h?
MET

Quick check: does "Cc1ncnc2c1ncn2[C@@H]1O[C@@H](CO)[C@@H](O)[C@H]1O" have Drug metabolism greater than or equal to 2000 nmol/mg/h?
NOT MET

---

Let's look at some compounds and their measured Drug metabolism.
method: Prodrug activation assessed as recombinant Escherichia coli PNP M64V mutant-mediated compound cleavage at 100 uM by reverse phase HPLC analysis
# unit: nmol/mg/h | format: bare number

Some compounds with known Drug metabolism results, for comparison:
compound structure	unit symbol	Drug metabolism
Cc1ncnc2c1ncn2[C@H]1C[C@H](O)[C@@H](CO)O1	nmol/mg/h	593000
Cc1ncnc2c1ncn2[C@@H]1O[C@H]([C@H](C)O)[C@@H](O)[C@H]1O	nmol/mg/h	86000
Cc1ncnc2c1ncn2[C@@H]1O[C@@H](CO)[C@@H](O)[C@H]1O	nmol/mg/h	10000

Identify Drug metabolism associated with the compound "Cc1ncnc2c1ncn2[C@@H]1O[C@H](CO)[C@@H](O)[C@H]1O"
176000

---

method: Prodrug activation assessed as recombinant Escherichia coli PNP-mediated compound cleavage at 100 uM by reverse phase HPLC analysis
Let's look at some molecules and their measured Drug metabolism.
# unit: nmol/mg/h | format: bare number

compound structure	Drug metabolism / nmol/mg/h
Cc1ncnc2c1ncn2[C@@H]1O[C@@H](CO)[C@@H](O)[C@H]1O	218
OC[C@H]1O[C@@H](n2cnc3c(O)ncnc32)[C@H](O)[C@@H]1O	342000
Cc1ncnc2c1ncn2[C@H]1C[C@H](O)[C@@H](CO)O1	528000
Cc1ncnc2c1ncn2[C@@H]1O[C@H](CO)[C@@H](O)[C@H]1O	96000

Consider the record given below.
Identify Drug metabolism associated with the molecule "Cc1ncnc2c1ncn2[C@@H]1O[C@H]([C@H](C)O)[C@@H](O)[C@H]1O"
915

---

target or system: Purine nucleoside phosphorylase (Homo sapiens, UniProt P00491)
Sequence (P00491 whole entry): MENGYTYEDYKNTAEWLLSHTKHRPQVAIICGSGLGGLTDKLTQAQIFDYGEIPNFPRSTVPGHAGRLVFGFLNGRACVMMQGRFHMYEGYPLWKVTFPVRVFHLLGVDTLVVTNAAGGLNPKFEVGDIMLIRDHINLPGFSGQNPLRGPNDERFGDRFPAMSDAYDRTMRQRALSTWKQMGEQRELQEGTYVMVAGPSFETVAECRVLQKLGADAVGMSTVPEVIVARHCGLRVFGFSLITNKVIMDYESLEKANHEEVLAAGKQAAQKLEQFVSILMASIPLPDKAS
method: Prodrug activation assessed as recombinant human PNP-mediated compound cleavage at 100 uM by reverse phase HPLC analysis
measured property: Drug metabolism (nmol/mg/h)
# unit: nmol/mg/h | format: bare number

Some molecules with known Drug metabolism results, for comparison:
compound structure	unit symbol	Drug metabolism
Cc1ncnc2c1ncn2[C@H]1C[C@H](O)[C@@H](CO)O1	nmol/mg/h	35
Cc1ncnc2c1ncn2[C@@H]1O[C@H](CO)[C@@H](O)[C@H]1O	nmol/mg/h	12

Consider the record given below.
State Drug metabolism on Purine nucleoside phosphorylase (Homo sapiens, UniProt P00491). Entry: "OC[C@H]1O[C@@H](n2cnc3c(O)ncnc32)[C@H](O)[C@@H]1O"
391000

---

Let's look at some molecules and their measured log10 Drug metabolism.
method: Prodrug activation assessed as recombinant Trichomonas vaginalis PNP-mediated compound cleavage at 100 uM by reverse phase HPLC analysis
Please note: log10 values; quantity Drug metabolism; unit nmol/mg/h.

Some molecules with known log10 Drug metabolism results, for comparison:
compound structure	meas value
Cc1ncnc2c1ncn2[C@@H]1O[C@H](CO)[C@@H](O)[C@H]1O	5.19
Nc1ncnc2c1ncn2[C@@H]1O[C@H](CO)[C@@H](O)[C@H]1O	5.70
Cc1ncnc2c1ncn2[C@@H]1O[C@@H](CO)[C@@H](O)[C@H]1O	4.00
OC[C@H]1O[C@@H](n2cnc3c(O)ncnc32)[C@H](O)[C@@H]1O	5.19
Cc1ncnc2c1ncn2[C@@H]1O[C@H]([C@H](C)O)[C@@H](O)[C@H]1O	3.92

Consider the record given below.
Identify log10 Drug metabolism associated with the molecule "Cc1ncnc2c1ncn2[C@H]1C[C@H](O)[C@@H](CO)O1"
5.68

This collection of values is drawn from ChEMBL document CHEMBL3751814.
